Data provenance is paper PMC5376645.

target: T1, human VEGF-A165 (VEGF homodimer with each monomer having 165 amino acid residues) (Homo sapiens, UniProt P15692-4, strain, biotin (site not stated; named for Supplementary Table 2 only)); assay: SPR; Biacore as per the manufacturer's protocol; kinetic rate constants and affinity of the Fab constructs for biotinylated hVEGF-A165; conditions: both partners purified
T1 construct: also called hVEGF-A165; hVEGF; source: bought: Peprotech (catalogue number AF-100-20)
T1 sequence (P15692 whole entry, looked up, change not shown): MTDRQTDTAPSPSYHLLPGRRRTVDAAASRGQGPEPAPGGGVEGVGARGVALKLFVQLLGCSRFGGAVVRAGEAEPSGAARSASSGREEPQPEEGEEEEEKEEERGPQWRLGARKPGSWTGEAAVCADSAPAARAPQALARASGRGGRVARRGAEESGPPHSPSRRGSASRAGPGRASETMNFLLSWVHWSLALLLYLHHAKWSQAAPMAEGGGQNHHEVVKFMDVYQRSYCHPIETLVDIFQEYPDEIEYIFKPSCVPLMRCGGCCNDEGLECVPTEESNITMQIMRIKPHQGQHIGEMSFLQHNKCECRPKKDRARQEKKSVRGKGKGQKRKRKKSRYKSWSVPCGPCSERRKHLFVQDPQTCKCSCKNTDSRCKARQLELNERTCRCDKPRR
OBSERVATION TYPE: koff
Reply with a number, then the unit it belongs to.

LAVA1 (NVS24): NVS0 Fab with the LINK domain of human TSG6 fused to the C terminus of the heavy chain (Fab, V domains shown, Fab heavy chain of NVS0 (from brolucizumab); linker; TSG6 (TNF-stimulated gene 6 protein), human, LINK domain; Fab light chain of NVS0 (from brolucizumab); The LINK domain has a natural N-linked glycosylation site) VH: EVQLVESGGGLVQPGGSLRLSCTASGFSLTDYYYMTWVRQAPGKGLEWVGFIDPDDDPYYATWAKGRFTISRDNSKNTLYLQMNSLRAEDTAVYYCAGGDHNSGWGLDIWGQGTLVTVSS VL: EIVMTQSPSTLSASVGDRVIITCQASEIIHSWLAWYQQKPGKAPKLLIYLASTLASGVPSRFSGSGSGAEFTLTISSLQPDDFATYYCQNVYLASTNGANFGQGTKLTVL ... 1.01e-05 s⁻¹

query: Read the entry LAVA25, non-glycosylated variant of LAVA1 (Fab, V domains shown, as the Fab part of the heavy chain of Dm4 (LAVA1); linker; TSG6, human, LINK domain (HABP), the N-linked glycosylation site deleted by substitution of the asparagine residue; as the light chain of Dm4 (LAVA1); The substitution is in Supplementary Data 2) VH: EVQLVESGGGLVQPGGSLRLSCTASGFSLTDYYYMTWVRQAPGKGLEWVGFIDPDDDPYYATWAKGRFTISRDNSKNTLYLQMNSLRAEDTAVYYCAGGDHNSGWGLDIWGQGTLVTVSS VL: EIVMTQSPSTLSASVGDRVIITCQASEIIHSWLAWYQQKPGKAPKLLIYLASTLASGVPSRFSGSGSGAEFTLTISSLQPDDFATYYCQNVYLASTNGANFGQGTKLTVL and write its reported koff.
result: 0.000213 s⁻¹

query: Read the entry LAVA46, variant of LAVA1 with an additional disulfide bond in the LINK domain (Fab, V domains shown, as the Fab part of the heavy chain of Dm4 (LAVA1); linker; TSG6, human, LINK domain (HABP), with cysteine residues introduced for an additional disulfide bond and substitutions at and around the observed digestion sites; as the light chain of Dm4 (LAVA1); The substitutions are in Supplementary Data 2) VH: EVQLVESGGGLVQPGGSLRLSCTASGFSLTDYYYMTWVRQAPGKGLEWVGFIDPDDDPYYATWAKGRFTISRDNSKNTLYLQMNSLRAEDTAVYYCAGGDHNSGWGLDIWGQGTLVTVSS VL: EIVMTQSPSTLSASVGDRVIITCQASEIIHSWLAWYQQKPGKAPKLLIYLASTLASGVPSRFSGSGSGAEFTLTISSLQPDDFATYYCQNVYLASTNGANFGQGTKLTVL and write its reported koff.
result: 0.000257 s⁻¹

query: Read the entry LAVA3, protease-resistant variant of LAVA1 (Fab, V domains shown, as the Fab part of the heavy chain of Dm4 (LAVA1); linker; TSG6, human, LINK domain (HABP), with amino acid substitutions around the observed proteolytic sites; as the light chain of Dm4 (LAVA1); The substitutions are in Supplementary Data 2) VH: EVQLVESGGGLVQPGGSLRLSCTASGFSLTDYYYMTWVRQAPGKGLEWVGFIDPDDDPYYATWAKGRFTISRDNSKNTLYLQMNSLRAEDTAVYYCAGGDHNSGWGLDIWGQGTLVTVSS VL: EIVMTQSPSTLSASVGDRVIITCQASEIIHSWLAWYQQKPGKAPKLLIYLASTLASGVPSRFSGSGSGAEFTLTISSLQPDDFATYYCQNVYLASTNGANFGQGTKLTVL and write its reported koff.
result: 1.19e-05 s⁻¹

query: Read the entry LAVA45, variant of LAVA1 with an additional disulfide bond in the LINK domain (Fab, V domains shown, as the Fab part of the heavy chain of Dm4 (LAVA1); linker; TSG6, human, LINK domain (HABP), with cysteine residues introduced for an additional disulfide bond and substitutions at and around the observed digestion sites; as the light chain of Dm4 (LAVA1); The substitutions are in Supplementary Data 2) VH: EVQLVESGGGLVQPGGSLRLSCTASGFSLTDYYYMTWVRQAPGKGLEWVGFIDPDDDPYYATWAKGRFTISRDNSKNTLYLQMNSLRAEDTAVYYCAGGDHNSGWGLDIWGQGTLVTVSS VL: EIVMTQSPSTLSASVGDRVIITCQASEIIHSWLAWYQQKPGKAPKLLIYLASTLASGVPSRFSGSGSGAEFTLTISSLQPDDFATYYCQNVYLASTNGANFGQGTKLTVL and write its reported koff.
result: 7.21e-05 s⁻¹
